Parameter normalized growth: see the listing below.
assay: chemical genetic growth profiling, strain panel (AID 1159580);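 further: tested at 20 µM; growth read once vehicle control cultures reached saturation at 30 °C; 1 = growth at the plate median or of vehicle wells; lower values mean less growth of the strain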; conditions: S. cerevisiae deletion strains, growth OD, locus YOR061W, strain CKA2, stronger effect = lower value
About 2,000 (36%) of roughly 5,500 compounds were called active. About 18% were inconclusive and are not listed. The list shows a part of the results.
API note: the answer field is a bare number with no unit suffix.

Previously resolved entries follow.
C[C@H]1OC(O[C@H]2[C@@H](O)CC(O[C@H]3[C@@H](O)C[C@H](O[C@H]4CC[C@]5(C)C6CC[C@]7(C)[C@@H](C8=CC(=O)OC8)[C@@H](O)C[C@]7(O)[C@@H]6CC[C@@H]5C4)O[C@@H]3C)O[C@@H]2C)C[C@H](O)C1O (stereo not given in full) = 1.01
CO[C@H]1[C@H](O)[C@@H](O[C@H]2CC[C@]3(C=O)C4CC[C@]5(C)[C@@H](C6=CC(=O)OC6)CC[C@]5(O)C4CC[C@@H]3C2)O[C@@H](C)[C@@H]1O (stereo not given in full) = 0.968
CCOC(=O)C1=C(O)C(=O)N(Cc2ccccc2)C1 = 1.01
O=C(OCc1ccccc1Br)c1cc([N+](=O)[O-])cc([N+](=O)[O-])c1 = 0.809

Kindly note the recorded normalized growth for CSCCC(N)C(=O)NC(CC(C)C)C(=O)NC(Cc1ccccc1)C(=O)O (stereo not given) , which is 1.02

Kindly note the recorded normalized growth for O=C(NNc1cc(C(F)(F)F)cc(C(F)(F)F)c1)c1cnc2n(c1=O)CCS2 , which is 1.02

Kindly note the recorded normalized growth for CC(=O)OC1CC[C@@]2(C)C(CCC3C2CC[C@]2(C)C(C4=CC(=O)OC4)C(OC(C)=O)CC32O)C1 (stereo not given in full) , which is 1.01

Kindly note the recorded normalized growth for C/C=C/CC(C)C(O)C1C(=O)NC(CC)C(=O)N(C)CC(=O)N(C)C(CC(C)C)C(=O)NC(C(C)C)C(=O)N(C)C(CC(C)C)C(=O)NC(C)C(=O)NC(C)C(=O)N(C)C(CC(C)C)C(=O)N(C)C(CC(C)C)C(=O)N(C)C(C(C)C)C(=O)N1C (stereo not given) , which is 0.967

Kindly note the recorded normalized growth for C[C@H]1O[C@@H](O[C@H]2[C@@H](O)C[C@H](O[C@H]3[C@@H](O)C[C@H](O[C@H]4CC[C@]5(C)C6C[C@@H](O)[C@]7(C)[C@@H](C8=CC(=O)OC8)CC[C@]7(O)C6CC[C@@H]5C4)O[C@@H]3C)O[C@@H]2C)C[C@H](O)[C@@H]1O (stereo not given in full) , which is 0.984

====

experiment: chemical genetic growth profiling, strain panel (AID 1159580);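 further: tested at 20 µM; growth read once vehicle control cultures reached saturation at 30 °C; 1 = growth at the plate median or of vehicle wells; lower values mean less growth of the strain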; conditions: S. cerevisiae deletion strains, growth OD, locus YJR043C, strain POL32, stronger effect = lower value
Out of some 5,500 compounds screened, about 2,000 (36%) were called active. Another 18% or so got no clear call; they are omitted. The list shows a part of the results.
OBSERVED_PROPERTY: normalized growth
API note: the answer field is a bare number with no unit suffix.

Previously resolved entries follow.
c1ccc(-c2ncc3ccccn23)cc1 = 0.99
CCCc1nn(C)c2c(=O)[nH]c(-c3cc(S(=O)(=O)N4CCN(C)CC4)ccc3OCC)nc12 = 1.04
CC1=CC(=O)C2C(C)(C)CCC[C@]2(C)[C@@]1(O)CCc1ccoc1 (some centres not stated) = 1.08
CC(=O)N1CCCC1C(=O)O (configuration not stated) = 0.995
CCOC(=O)c1cnc2n(c1=O)CCS2 = 0.999

# evaluate next
Kindly note the recorded normalized growth for O=C(O)CCc1nc(-c2ccccc2)c(-c2ccccc2)o1 , which is 0.959
